# Tested on: HOP-92 NSCLC
# Protocol: NCI tumour cell line growth inhibition, 48 h
Where a SMILES comes first, the peptide text is derived from it. The star is where a group is joined. Cbz = O=C(OCc1ccccc1)*
Could you please report measured TGI for the items listed next?

Challenge: Requested field: TGI. Item: "COc1ccc(/C=C/c2cnccn2)cc1OC"
Response given: > 10 µM

Challenge: Now the same for Cc1ccnc2c1C(=O)C1=C(OC(C)(C)CC1O)C2=O (stereo unspecified)
Response given: 24.6 µM

Challenge: Now the same for "CCOC(=O)C1=C(Nc2ccc(Br)cc2)OCC1=O"
Response given: > 100 µM

Challenge: Now the same for CCOC(=O)CCC(NC(=O)c1ccc(NCc2ccc3nc(-c4ccccc4)c(Cl)nc3c2)cc1)C(=O)OCC (stereo unspecified)
Response given: 27.3 µM

Challenge: Now the same for "COc1ccc(-c2nn(-c3cccc(Cl)c3)cc2-c2nc(N)[nH]c(=O)c2C#N)cc1"
Response given: 12.2 µM

Challenge: Now the same for CCOC(=O)CCC(NC(=O)C(Cc1ccccc1)NC(=O)OCc1ccccc1)C(=O)OCC (stereo not drawn) (Cbz-Phe-Glu(OEt)-OEt; configuration not given here)
Response given: 36.3 µM

Challenge: Now the same for "O=c1[nH]nc(Cc2ccc(Cl)cc2)n1/N=C/c1cccs1"
Response given: 64.2 µM

Challenge: Now the same for CC(Cl)CN1c2ccccc2Sc2ccc(Cl)cc21 (stereo unspecified)
Response given: > 10 µM

Challenge: Now the same for "COc1cc(-c2nnc3n2NC=C(C(=O)O)S3)cc(OC)c1OC"
Response given: > 100 µM

Challenge: Now the same for "CCCO[C@@H]1[C@@H](OC(C)=O)[C@@H](OC(C)=O)C(C)(C)/C=C/[C@H](C)C(=O)[C@@]2(OC(C)=O)C[C@@](C)(OC(C)=O)[C@H](OC(C)=O)[C@@H]2[C@H]2OC(=O)CC[C@@]12OC(=O)c1ccccc1"
Response given: > 25 µM

Challenge: Now the same for "CC(C)(C)c1cc(C(=O)/C=C/c2ccc(C(=O)O)cc2)cc(C(C)(C)C)c1"
Response given: 19.7 µM

Challenge: Now the same for "COC(=O)c1c[nH]cc1CCCCc1c[nH]cc1C(=O)OC"
Response given: > 100 µM

Challenge: Now the same for C1=NC(N(Cc2ccccc2)Cc2ccccc2)N(Cc2ccccc2)N1 (stereo unspecified)
Response given: 25.6 µM

Challenge: Now the same for "C=CC1(CC[C@]2(c3ccc(OC)c(OC)c3)C=[N+]([O-])O[C@H](O[C@@H]3CCCC[C@H]3C(C)(C)c3ccccc3)C2)OCC(C)(C)CO1"
Response given: > 46.6 µM

Challenge: Now the same for C=CCCC1(C)CCCNC1=S (stereo unspecified)
Response given: > 100 µM

Challenge: Now the same for "Cn1cc(S(=O)(=O)N2CCC3=Cc4c(cnn4-c4ccc(F)cc4)C[C@]3(C(=O)c3cc(C(F)(F)F)ccn3)C2)cn1"
Response given: > 100 µM

Challenge: Now the same for "c1ccc2c(c1)OCCOCCOc1ccccc1OCCO2"
Response given: > 100 µM

Challenge: Now the same for "N#Cc1cc2c(cc1Cl)Sc1nnc(Nc3ccccc3)n1S2(=O)=O"
Response given: 4.74 µM

Challenge: Now the same for "COc1cc2c(cc1O)NC(=O)[C@@H]1CCCN1C2=O"
Response given: > 100 µM

Challenge: Now the same for CC(=O)OC(CCC1(C)OC1COc1ccc(CCNC(=O)C=C(C)C)cc1)C(C)(C)OC(C)=O (stereo unspecified)
Response given: > 100 µM

Challenge: Now the same for "COc1ccc(/C(Cl)=C(\C#N)c2ccc(OC)c(OC)c2)cc1OC"
Response given: > 100 µM

Challenge: Now the same for "OC(C/C=N/N=C/CC(O)(C(F)(F)Cl)C(F)(F)Cl)(C(F)(F)Cl)C(F)(F)Cl"
Response given: > 10 µM

Challenge: Now the same for "Oc1ccc(N=Nc2nccs2)c(O)c1"
Response given: 24.7 µM

Challenge: Now the same for C[n+]1c2ccccc2c(NC(CCCN=C(N)N)C(=O)O)c2ccccc21 (stereo unspecified)
Response given: > 100 µM

Challenge: Now the same for "Cn1cc(-c2csc(-c3cn(C)c4ccc(F)cc34)n2)c2cnccc21"
Response given: 3.26 µM

Challenge: Now the same for "C[P+](C)(C)c1ccccc1"
Response given: > 100 µM

Challenge: Now the same for "O=C1c2ccccc2C(=O)N1C/C=N/NS(=O)(=O)c1ccc(Br)cc1"
Response given: > 100 µM

Challenge: Now the same for "O=C1C(Br)=CC2(C=C1Br)CCNC1=C2C(=O)c2ncccc2C1=O"
Response given: 4.38 µM

Challenge: Now the same for "COc1cc(C(=O)O[C@H](C(N)=O)[C@]2(C)CO2)c2cccc(C)c2c1"
Response given: 2.28 µM

Challenge: Now the same for "Nc1ccc(C2=N/C(=C\c3cccc(N)c3)C(=O)O2)cc1"
Response given: > 100 µM

Challenge: Now the same for "N[C@H](Cc1ccc2oc3cc(=O)c4ccccc4c-3nc2c1)C(=O)O"
Response given: > 100 µM
